These entries and their values trace back to paper PMC5261807.

STUDY TARGET: T1, Bdf1 bromodomain 1 (GST-tagged, WT) (Saccharomyces cerevisiae (strain ATCC …, UniProt P35817))
T1 chain: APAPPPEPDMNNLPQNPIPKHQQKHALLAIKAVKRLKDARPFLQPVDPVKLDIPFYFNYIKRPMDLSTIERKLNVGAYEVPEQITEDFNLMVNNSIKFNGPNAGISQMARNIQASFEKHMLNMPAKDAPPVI
EXPERIMENT NOTES: histone peptide array probed with recombinant GST-bromodomain, signal normalised to myc peptide control
MEASURED PROPERTY: binding score
Give the figure only, with no unit attached.

SGRGKGGKGLGKGGAKRHR (pS G Rme2a G Kac G G K G L G K G G A K R H R) :: 0.00753

Here is another binder to look at.
Output measured binding score for this item: ARTKQTARKSTGGKAPRKQ (A R T K Q T A R Kac S T G G K A P R K Q) 0.000897
